- experimental_target: Dual specificity mitogen-activated protein kinase kinase 6 (Homo sapiens) (UniProt P52564)
- Sequence (whole entry): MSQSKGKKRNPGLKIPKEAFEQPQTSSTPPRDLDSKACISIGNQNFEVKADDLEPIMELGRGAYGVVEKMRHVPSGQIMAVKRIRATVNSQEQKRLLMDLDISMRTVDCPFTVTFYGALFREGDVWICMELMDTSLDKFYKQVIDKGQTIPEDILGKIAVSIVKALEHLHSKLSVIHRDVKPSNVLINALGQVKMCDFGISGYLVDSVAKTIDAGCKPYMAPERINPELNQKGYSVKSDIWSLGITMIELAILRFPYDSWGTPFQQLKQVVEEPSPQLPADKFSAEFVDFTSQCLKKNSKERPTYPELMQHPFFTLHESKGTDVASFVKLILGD
attribute_measured: ΔTm (°C)

[[record]]
substance_smiles = "O=C1Nc2ccccc2/C1=C\\c1ccc[nH]1"
reading = 3.4

[[record]]
substance_smiles = "CN(C)S(=O)(=O)c1ccc2c(c1)/C(=C/c1cc3c([nH]1)CCCC3)C(=O)N2"
reading = 0.3

[[record]]
substance_smiles = "Oc1cc(O)cc(/C=C/c2ccc(O)c(O)c2)c1"
reading = 0.1

[[record]]
substance_smiles = "CN(C)CCCn1cc(C2=C(c3c[nH]c4ccccc34)C(=O)NC2=O)c2ccccc21"
reading = 1.1

[[record]]
substance_smiles = "Nc1cccc(-c2cc3c(Oc4cccc(O)c4)ncnc3[nH]2)c1"
reading = 2.7

[[record]]
substance_smiles = "Ic1cccc(CSc2nnc(-c3ccncc3)o2)c1"
reading = 0.3

[[record]]
substance_smiles = "Nc1cc2ncnc(Nc3cccc(Br)c3)c2cc1N"
reading = 0.7

[[record]]
substance_smiles = "Cc1cc2ncc(-c3ccccc3)nc2cc1C"
reading = 0.3

[[record]]
substance_smiles = "N=C(N)NCCNS(=O)(=O)c1cccc2cnccc12"
reading = -0.1

[[record]]
substance_smiles = "OC[C@H]1O[C@@H](n2cnc3cc(Cl)c(Cl)cc32)[C@H](O)[C@@H]1O"
reading = 0.2

[[record]]
substance_smiles = "NS(=O)(=O)c1ccc(Nc2nc(OCC3CCCCC3)c3nc[nH]c3n2)cc1"
reading = 2


###

- experimental_target: Serine/threonine-protein kinase 25 (Homo sapiens)
Rule: ΔTm of 2 °C or more gives 1; anything lower gives 0.

[[record]]
compound = "O=Nc1c(-c2c(O)[nH]c3ccccc23)[nH]c2ccccc12"
label_value = 1

[[record]]
compound = "CC(C)(C)n1nc(-c2cccc3ccccc23)c2c(N)ncnc21"
label_value = 0

[[record]]
compound = "O=C1Nc2ccc(I)cc2/C1=C1/Nc2ccccc2/C1=N\\O"
label_value = 1

[[record]]
compound = "O=[N+]([O-])c1ccc(-c2nc(-c3ccc(F)cc3)c(-c3ccncc3)[nH]2)cc1"
label_value = 0

[[record]]
compound = "CCOC(=O)c1cnc2oc3ccc(O)cc3c2c1-c1ccccc1"
label_value = 0

[[record]]
compound = "O=c1cc(-c2ccc(O)cc2)oc2cc(O)cc(O)c12"
label_value = 1

[[record]]
compound = "COc1ccc2c(c[n+](C)c3c4cc5c(cc4ccc23)OCO5)c1OC [CHELERYTHRINE CHLORIDE]"
label_value = 0

[[record]]
compound = "Cn1cc(C2=C(c3cn(CCCSC(=N)N)c4ccccc34)C(=O)NC2=O)c2ccccc21"
label_value = 1

[[record]]
compound = "COc1ccc(CNc2nc(N(CCO)CCO)nc3c2ncn3C(C)C)cc1"
label_value = 0

[[record]]
compound = "CN(C)c1ncnc2nc[nH]c12"
label_value = 0

